biological target: Ba/F3 cells containing Ros1 wild-type protein (Homo sapiens, UniProt P08922, cells depend on it, form not given); construct: The background only speaks of 'a number of different unrelated proteins' and names SLC34A2-ROS1 for HCC78 cells; experiment: Ba/F3-Ros1 cell proliferation assay, wild-type Ros1; type: cell-based, murine; settings: without IL-3
Sequence (P08922 whole entry, stated change not applied): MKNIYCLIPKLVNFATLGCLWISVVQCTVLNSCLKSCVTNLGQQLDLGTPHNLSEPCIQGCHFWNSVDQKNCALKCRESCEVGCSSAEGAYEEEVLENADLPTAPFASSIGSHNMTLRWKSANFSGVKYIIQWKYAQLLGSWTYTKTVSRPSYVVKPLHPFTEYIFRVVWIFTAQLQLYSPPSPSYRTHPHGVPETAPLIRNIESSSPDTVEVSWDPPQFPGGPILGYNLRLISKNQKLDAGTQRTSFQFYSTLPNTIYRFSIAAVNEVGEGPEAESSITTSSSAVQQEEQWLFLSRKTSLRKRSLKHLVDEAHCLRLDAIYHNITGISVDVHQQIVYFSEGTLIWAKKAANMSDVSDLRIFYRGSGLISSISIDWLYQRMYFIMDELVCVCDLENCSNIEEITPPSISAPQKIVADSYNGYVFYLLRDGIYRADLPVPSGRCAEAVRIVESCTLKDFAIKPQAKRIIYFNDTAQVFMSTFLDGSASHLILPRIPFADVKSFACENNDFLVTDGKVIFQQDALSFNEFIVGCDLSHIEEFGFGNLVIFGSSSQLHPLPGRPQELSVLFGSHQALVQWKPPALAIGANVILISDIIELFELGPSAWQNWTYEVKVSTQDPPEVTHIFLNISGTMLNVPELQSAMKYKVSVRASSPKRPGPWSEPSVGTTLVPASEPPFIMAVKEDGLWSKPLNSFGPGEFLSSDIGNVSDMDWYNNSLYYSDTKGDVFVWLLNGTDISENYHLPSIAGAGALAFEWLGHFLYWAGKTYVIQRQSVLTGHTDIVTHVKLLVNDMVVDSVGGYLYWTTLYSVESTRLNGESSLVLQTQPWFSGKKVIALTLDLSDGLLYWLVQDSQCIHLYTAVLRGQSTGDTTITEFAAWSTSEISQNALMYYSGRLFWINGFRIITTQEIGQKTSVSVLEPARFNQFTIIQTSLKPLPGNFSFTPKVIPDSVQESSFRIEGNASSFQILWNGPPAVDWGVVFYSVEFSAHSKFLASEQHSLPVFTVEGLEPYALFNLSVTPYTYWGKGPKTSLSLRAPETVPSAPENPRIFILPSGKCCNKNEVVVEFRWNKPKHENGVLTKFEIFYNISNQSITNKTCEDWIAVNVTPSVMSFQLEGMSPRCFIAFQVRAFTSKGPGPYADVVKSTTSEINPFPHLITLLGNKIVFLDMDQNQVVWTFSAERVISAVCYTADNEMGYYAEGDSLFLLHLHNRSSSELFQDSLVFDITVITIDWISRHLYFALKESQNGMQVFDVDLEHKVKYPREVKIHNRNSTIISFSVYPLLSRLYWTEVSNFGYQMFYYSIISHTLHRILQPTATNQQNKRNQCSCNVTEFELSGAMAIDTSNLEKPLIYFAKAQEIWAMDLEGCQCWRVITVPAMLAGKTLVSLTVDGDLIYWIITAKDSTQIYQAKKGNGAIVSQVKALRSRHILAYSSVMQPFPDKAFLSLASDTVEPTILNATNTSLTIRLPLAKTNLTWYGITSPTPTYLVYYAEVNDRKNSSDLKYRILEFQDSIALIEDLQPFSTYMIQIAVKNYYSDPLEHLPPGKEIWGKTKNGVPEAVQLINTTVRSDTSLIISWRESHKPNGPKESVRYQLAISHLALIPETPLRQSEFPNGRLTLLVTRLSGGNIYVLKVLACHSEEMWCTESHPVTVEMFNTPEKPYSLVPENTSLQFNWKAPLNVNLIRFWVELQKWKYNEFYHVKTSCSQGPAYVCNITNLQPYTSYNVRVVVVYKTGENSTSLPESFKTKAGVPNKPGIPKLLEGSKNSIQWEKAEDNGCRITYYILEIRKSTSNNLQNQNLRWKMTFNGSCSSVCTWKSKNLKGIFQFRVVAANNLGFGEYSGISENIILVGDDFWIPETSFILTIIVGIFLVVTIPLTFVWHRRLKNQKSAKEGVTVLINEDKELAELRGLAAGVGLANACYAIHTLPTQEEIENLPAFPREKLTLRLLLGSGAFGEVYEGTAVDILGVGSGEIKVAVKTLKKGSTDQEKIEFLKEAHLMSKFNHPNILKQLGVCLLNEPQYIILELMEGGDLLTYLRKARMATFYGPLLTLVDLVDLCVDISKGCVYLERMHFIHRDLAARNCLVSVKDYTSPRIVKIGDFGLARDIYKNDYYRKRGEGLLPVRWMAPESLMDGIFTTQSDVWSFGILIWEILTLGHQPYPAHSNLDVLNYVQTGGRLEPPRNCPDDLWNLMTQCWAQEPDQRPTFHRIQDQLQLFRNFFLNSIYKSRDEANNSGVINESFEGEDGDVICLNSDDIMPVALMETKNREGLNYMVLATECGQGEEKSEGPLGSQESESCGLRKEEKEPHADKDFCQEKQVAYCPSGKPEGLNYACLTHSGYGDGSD
assay_metric: BaF3-ROS1-IL3 pIC50

# annotated cases, reported BaF3-ROS1-IL3 pIC50 shown
CC(C)c1ccc(COc2ccc(-c3c(-c4ccnc5[nH]ccc45)nn4c3C(=O)NCC4)cc2)cc1 ... 7.8
CNCC1Cn2nc(-c3ccncc3)c(-c3ccc(OCc4ccc(C(C)C)cc4)cc3)c2C(=O)N1 (stereo not drawn) ... 6.6
CC(C)c1ccc(CC(=O)c2ccc(-c3c(-c4ccncc4)nn4c3C(=O)NCC4)cc2)cc1 ... 5.5
CC(C)c1ccc(COc2ccc(-c3c(-c4ccncc4)nn4c3C(=O)N(CC(O)CO)CC4)cc2)cc1 (stereo not drawn) [Compound 44] ... 7.4
O=C1c2c(-c3ccc(OCc4ccc(C5CC5)cc4)cc3)c(-c3ccncn3)nn2CCN1CCO ... 7.2
CC(C)c1ccc(COc2ccc(-c3c(-c4ccncc4)nn4c3C(=O)N(CCO)CC4)cc2)cc1F ... 7.2
CC(C)c1ccc(COc2ccc(-c3c(-c4ccncc4)nn4c3C(=O)N(CCO)CC4)cc2)cc1 ... 7.6
CC(C)c1ccc(C2CCc3cc(-c4c(-c5ccncc5)nn5c4C(=O)N(CCO)CC5)ccc3O2)cc1 (stereo not drawn) ... 7.3
CC(C)c1ccc(COc2ccc(-c3c(-c4ccncc4)nn4c3CN(CCN)CC4)cc2)cc1 ... 6.3
CC(C)c1ccc(COc2ccc(-c3c(-c4ccncc4)nn4c3C(=O)NCC4)cc2)cc1CC(O)CO (stereo not drawn) ... 7.3

Report measured BaF3-ROS1-IL3 pIC50; entry is CC(C)c1ccc(COc2ccc(-c3c(-c4ccncc4)nn4c3C(=O)N(C(=O)OC(C)(C)C)CC4)cc2)cc1
6.4

For the molecule CC(C)c1ccc(COc2ncc(-c3c(-c4ccncc4)nn4c3C(=O)NCC4)cn2)cc1 , give its measured BaF3-ROS1-IL3 pIC50 value.
7.9

Return the recorded BaF3-ROS1-IL3 pIC50 value; entry: CC(C)c1ccc(COc2ccc(-c3c(-c4ccncc4)nn4c3C(=O)NCC4)c(C#N)c2)cc1
7.7

Give the reported BaF3-ROS1-IL3 pIC50 for this molecule. CC(C)c1ccc(COc2ccc(-c3c(-c4ccncc4)nn4c3C(=O)NC(CN(C)CCO)C4)cc2)cc1 (stereo not drawn)
6.7

Provide only the value of recorded BaF3-ROS1-IL3 pIC50 for Cc1ccc(COc2ccc(-c3c(-c4ccncc4)nn4c3C(=O)NCC4)cc2)cc1
7.0
